# credit: PubChem BioAssay (NCI)

Tested on: RPMI-8226 leukemia
Assay: NCI tumour cell line growth inhibition, 48 h
Provide the recorded TGI for the entries that follow.

Completed entries (count: 6):
compound: COc1cc(/C=C2\NC(=O)N(/C=C3\C(=O)Oc4ccccc4C3=O)C2=O)ccc1O
observable: TGI
recorded.measurement: > 100 µM
//
compound: CC(O[Si](C)(C)C(C)(C)C)[C@H](NC(=O)OCC(Cl)(Cl)Cl)C(=O)O (stereo not given in full)
observable: TGI
recorded.measurement: > 100 µM
//
compound: Cc1ccnc2c1NC(=O)c1cccnc1N2C1CC1
observable: TGI
recorded.measurement: > 100 µM
//
compound: COc1ccc(-c2nc3ccc(C)cc3o2)c(OC)c1
observable: TGI
recorded.measurement: 49.1 µM
//
compound: O=C1c2c(Br)sc(Br)c2[C@H]2NC(=S)O[C@@H]12
observable: TGI
recorded.measurement: 45.5 µM
//
compound: Cc1cc(N2CCN(C)CC2)nc(NC2CCCC(Nc3ccnc4cc(Cl)ccc34)C2)n1 (stereo not given)
observable: TGI
recorded.measurement: 4.95 µM

Would you be so kind as to report TGI for each listed record?
1. O=S(=O)(Nc1ccccc1S(=O)(=O)c1ccccc1)c1ccccc1
2. C(/COc1cccnc1)=N\NC1=NCCN1
3. COc1cc2cc(C(=O)N3CC(COS(C)(=O)=O)c4c3cc([N+](=O)[O-])c3ccccc43)[nH]c2c(OC)c1OC (stereo not given)

Response:
> 100 µM
> 100 µM
> 31.6 µM

Prompt: Note TGI for the compound shown: O=C1/C(=C\c2ccccc2)c2ccccc2N1Cc1ccccc1
Response: 9.28 µM

###

Assign TGI to each entry below.
Test system: OVCAR-8 ovarian
Assay: NCI tumour cell line growth inhibition, 48 h

compound: COC(=O)C(C(=O)C(=O)Nc1ccccc1OC)c1csc(-n2nc(-c3ccccc3)cc2-c2ccccc2)n1 (stereo not given)
TGI: > 100 µM

compound: CCCNc1[nH]c(C(C)=O)c(N)c1C(=S)Nc1ccccc1
TGI: > 100 µM

compound: N#CC1=C(N)Oc2c(sc3c(F)cccc23)C1c1ccc([N+](=O)[O-])cc1 (stereo not given)
TGI: 1.78 µM

compound: CCOC(=O)c1sc2nc(SC)nc(Nc3ccc(OC)c(OC)c3)c2c1N
TGI: > 100 µM

Please find the next compound below.
Prompt: For the compound NC1=C(c2nc(-c3cc4ccccc4oc3=O)cs2)C(c2ccco2)c2c(c3ccccc3oc2=O)O1 (stereo not given) , give its reported TGI.
Response: > 150 µg/mL

###

Please provide measured TGI for the entries that follow.
Tested on: T-47D breast
Experiment: NCI tumour cell line growth inhibition, 48 h
Answers are plain numbers, in µM.

structure.as.smiles: Cc1oc2c(c1C(=O)c1ccccc1)C(=O)c1ccccc1C2=O
recorded.measurement: 7.04

structure.as.smiles: CCOC(=O)c1c(C)c2c(n1C)CSc1cc(S(=O)(=O)c3ccccc3)c(=O)[nH]c1-2
recorded.measurement: 74.7

# input for lookup
Prompt: Determine its reported TGI: Nc1cc(C(F)F)c(-c2nc(N3[C@@H]4CC[C@H]3COC4)nc(N3[C@@H]4CC[C@H]3COC4)n2)cn1
Response: 0.41

###

System: NCI-H226 lung
Assay: NCI tumour cell line growth inhibition, 48 h
observable: TGI

Solved cases below.
molecule: O=C1c2c(Br)sc(Br)c2[C@H]2NC(=S)O[C@@H]12
recorded.measurement: 42.9 µM
--
molecule: O=C1OC(=O)C2C3CCC(O3)C12 (centres undefined)
recorded.measurement: > 100 µM
--
molecule: NC1=C(c2nc(-c3cc4ccccc4oc3=O)cs2)C(c2ccco2)c2c(c3ccccc3oc2=O)O1 (centres undefined)
recorded.measurement: 131 µg/mL
--
molecule: CC1C(c2ccccc2O)c2cc3c(cc2OC1N1CCCC1)OCO3 (centres undefined)
recorded.measurement: > 100 µM
--
molecule: Cc1ccc(S(=O)(=O)n2ccn3c(=O)cc(C)nc23)cc1
recorded.measurement: > 10 µM

Please look at the items below and tell me TGI for each one, in order.
1. O=C(c1nsc(Cl)c1Cl)N1CCCCC1
2. C=CCSc1nn(CC=C)cc2ncnc1-2
3. C#C[C@]1(O)CC[C@H]2[C@@H]3CC=C4c5nc(Nc6ccc(OC)cc6OC)sc5CC[C@]4(C)[C@H]3CC[C@@]21C
4. CCCCc1ccc(Nc2nc(Cl)c3[nH]cnc3n2)cc1
5. CC(=O)Nc1ccc(/C=c2\sc3nnc(/C=C/c4ccccc4)n3c2=O)cc1

Response:
["> 100 µM", "> 100 µM", "6.23 µM", "> 100 µM", "> 50 µM"]

For each entry beneath this line, provide reported TGI.
1. CCN(C)S(=O)(=O)Nc1cccc(Nc2ncnc3cc(NC(=O)CCl)ccc23)c1Cl
2. Cc1cc(N2CCN(C)CC2)nc(NC2CCCC(Nc3ccnc4cc(Cl)ccc34)C2)n1 (centres undefined)
3. Oc1cccc(C2SCc3nc4ccccc4n32)c1 (centres undefined)
4. Clc1ccc2c(NCCCN3CCN(c4nc(-n5ccnc5)nc5ccccc45)CC3)ccnc2c1
5. Cc1ccc(NC(=O)SCCC(=O)O)cc1NC(=O)SCCC(=O)O

Response:
1: 12.6 µM; 2: 10.3 µM; 3: > 100 µM; 4: > 100 µM; 5: > 100 µM

###

Give measured TGI for each item. Keep answers brief.
System: HT29 colon
Assay: NCI tumour cell line growth inhibition, 48 h
Numbers only, in µM.

molecule: O=C(Nc1cc(C(F)(F)F)ccc1Cl)C(=O)C(C(=O)c1ccc2ccccc2c1)C1OC(=O)c2ccccc21 (stereo not drawn)
TGI (µM): 31.7

molecule: C/C=C(/C)C(=O)OC1C=C(CO)C(=O)C(OC(=O)/C(C)=C\C)C1C(C)C (stereo not drawn)
TGI (µM): 2.33

molecule: O=[N+]([O-])c1ccc2nc(N/N=C/c3ccc(O)cc3)sc2c1
TGI (µM): 28

Please find the next molecule below.
Prompt: Return TGI (reported value) for this molecule: O=C(C#Cc1c[nH]c(=O)[nH]c1=O)c1ccccc1
Response: 53.7

###

Exercise: for every item that follows, state its recorded TGI.
Tested on: SN12C renal
Assay: NCI tumour cell line growth inhibition, 48 h
Numbers only, in µM.

compound: Cc1cc(N2CCN(C)CC2)nc(NC2CCCC(Nc3ccnc4cc(Cl)ccc34)C2)n1 (stereo not given)
target: SN12C renal
unit.abbrev: µM
recorded.measurement: 12.2

compound: O=C(N/N=C/c1cc2ccccc2c2ccccc12)c1cc(O)c(O)c(O)c1
target: SN12C renal
unit.abbrev: µM
recorded.measurement: 30

Now for a further compound.
Prompt: Please give the documented TGI of CCC12C=CCN3CC[C@]4(C(=C(C(=O)OC)[C@@H]1Nc1ccn(C5OC(COC(C)=O)C(OC(C)=O)C5OC(C)=O)c(=O)n1)Nc1ccccc14)C32 (stereo not given in full)
Response: 8.24

###

Tested on: SW-620 colon
Assay: NCI tumour cell line growth inhibition, 48 h; in the data active = GI50 below about 0.43 µM; inactive = the rest
Select the correct class. Options are active, inactive and nothing else.

Worked cases, answers included:
compound: COc1cc(/C=C2\C(=O)N(c3c(Cl)cccc3Cl)c3ccccc32)cc(OC)c1O
cat: inactive
--
compound: O=c1cccc(C#CCCCCOC2CCCO2)o1 (stereo not given)
cat: inactive
--
compound: CCN(C)S(=O)(=O)Nc1cccc(Nc2ncnc3cc(NC(=O)CCl)ccc23)c1Cl
cat: inactive
--
compound: O=C(NCCNCCO)c1ccc2oc3cc4ccccc4c(=O)n3c2c1
cat: inactive
--
compound: N#Cc1ccc(-n2cnc(NC(=O)[C@H]3CCN(C#N)C3)c2)cc1
cat: inactive

Prompt: Hello, I am checking results. What call was entered for COc1ccc(OC)c(-c2nc3sccn3c2/C=C2/C(=O)Nc3ccccc32)c1 ?
Response: inactive

Prompt: Look up the recorded call for N#Cc1cccc(Nc2nccc(-c3cnn4ncccc34)n2)c1 in this test.
Response: active

Prompt: Which result was noted for this compound in the test: COc1ccc2cc(C(=O)/C=C/c3ccc(OC)c(OC)c3)ccc2c1
Response: inactive

Prompt: Which result was noted for this compound in the test: NC(N)=NC(N)=NCCc1ccccc1
Response: inactive

Prompt: Field: outcome | Entry: O=C(Oc1ccc([N+](=O)[O-])cc1)N1CCC(C(O)(c2ccc3c(c2)OCO3)c2ccc3c(c2)OCO3)CC1
Response: inactive

Prompt: Please state the recorded outcome for this compound: Cc1cc(NC(=O)CCc2ccc(N3C(N)=NC(N)=NC3(C)C)cc2)ccc1S(=O)(=O)F
Response: active

###

Provide the reported TGI of each item.
System: MDA-MB-435
Assay: NCI tumour cell line growth inhibition, 48 h
Answers are plain numbers, in µM.

The cases that follow already have their TGI on record.
structure.as.smiles: O=[N+]([O-])c1ccc2nc(N/N=C/c3ccc(O)cc3)sc2c1
unit.abbrev: µM
TGI: 91.9
--
structure.as.smiles: CCOC(=O)C(=Cc1ccc(Br)cc1)C(=O)OCC
unit.abbrev: µM
TGI: 6.91
--
structure.as.smiles: O=C1c2c(Br)sc(Br)c2[C@H]2NC(=S)O[C@@H]12
unit.abbrev: µM
TGI: 29.1
--
structure.as.smiles: O=C(c1cccs1)c1c(C(F)(F)F)n([O-])c2cc(F)c(F)cc2[n+]1=O
unit.abbrev: µM
TGI: 5.28

Prompt: Using the record for O=[N+]([O-])c1ccc(N(CCO)CCO)c2c1no[n+]2[O-] , state its measured TGI.
Response: 4.87
